Target: progesterone receptor (alkaline phosphatase activity in T47D cells) (Homo sapiens)
Construct: determining a compound's effect on alkaline phosphatase activity in T47D cells; endogenous in cells
Assay: Effects of progestins and antiprogestins on alkaline phosphatase activity in T47D cells (antagonist mode)
Settings: in the presence of 1 nM progesterone, 24 h
Listed next: entries and their corresponding IC50.
Respond with the bare value in nM.

// below: answered compounds
> print(dat)
                                   compound  unit.symbol  data.value
1  CC1(C)CO/C(=N\C#N)N1c1nc(-c2ccc(C#N)cc2)cs1           nM        64.4
2    CC1(C)COC(=N)N1c1nc(-c2ccc(C#N)cc2)cs1           nM        53.4

Please turn your attention to the following entry.
Task item: Given the compound `CC(=O)/N=C1\OCC(C)(C)N1c1nc(-c2ccc(C#N)cc2)cs1` , what is its reported IC50?
Reply: 10.8
